The values you see were collected from patent US20260042753A1.

target: c-Kit(V654A) (Homo sapiens, UniProt P10721, V654A); assay: c-Kit(V654A) assay; assay type: biochemical; conditions: Table 1; 200 μM ATP
pIC50: −log10 of the molar value.
ASSAY_READOUT: pIC50

Before answering, review these 6 worked examples.
{"MOLECULE": "COCCOc1cc2[nH]nc(-c3cc(-c4ccc(OCCN5CCS(=O)(=O)CC5)cc4)no3)c2cc1F [A132]", "MEASUREMENT_TARGET": "c-Kit(V654A) (Homo sapiens, UniProt P10721, V654A)", "pIC50": 8.80}
{"MOLECULE": "COCCOc1cc2[nH]nc(-c3cc(-c4ccc(C(=O)NCc5nc6ccccc6[nH]5)cc4)no3)c2cc1F [A156]", "MEASUREMENT_TARGET": "c-Kit(V654A) (Homo sapiens, UniProt P10721, V654A)", "pIC50": 8.28}
{"MOLECULE": "COCCOc1cc2[nH]nc(-c3cc(-c4ccc(C(=O)N5CCN(C6COC6)C[C@@H]5C)cc4)no3)c2cc1F [A191]", "MEASUREMENT_TARGET": "c-Kit(V654A) (Homo sapiens, UniProt P10721, V654A)", "pIC50": 8.74}
{"MOLECULE": "COCCOc1cc2[nH]nc(-c3cc(-c4ccc(C(=O)N5CC(N(C)C)C5)cc4)no3)c2cc1F [A76]", "MEASUREMENT_TARGET": "c-Kit(V654A) (Homo sapiens, UniProt P10721, V654A)", "pIC50": 8.70}
{"MOLECULE": "CCOc1ccc(-c2cc(-c3n[nH]c4cc(OCCOC)c(F)cc34)on2)cn1 [A38]", "MEASUREMENT_TARGET": "c-Kit(V654A) (Homo sapiens, UniProt P10721, V654A)", "pIC50": 7.46}
{"MOLECULE": "COCCOc1cc2[nH]nc(-c3cc(-c4ccc(C(=O)N5CC(N6CCOCC6)C5)cn4)no3)c2cc1F [A82]", "MEASUREMENT_TARGET": "c-Kit(V654A) (Homo sapiens, UniProt P10721, V654A)", "pIC50": 8.01}

1: COCCOc1cc2[nH]nc(-c3cc(-c4ccc(C(=O)N5CC(N6CCCCC6)C5)cc4)no3)c2cc1F [A177]
2: CC(C)(O)[C@@H]1CCCN1C(=O)c1ccc(-c2cc(-c3n[nH]c4cc(Br)ccc34)on2)cc1 [A4]
When the recorded pIC50 values are compared, which is smaller: that of 1 or that of 2 ? Reply with the label of the item you choose.
2

I: COCCOc1cc2[nH]nc(-c3cc(-c4ccc(C(=O)N5CC6(COC6)C5)cc4)no3)c2cc1F [A74]
II: COCCOc1cc2[nH]nc(-c3cc(-c4ccc(N=S(C)(C)=O)cc4)no3)c2cc1F [A47]
Could you please tell me which of these two has the higher pIC50: I or II ? Reply with the label of the item you choose.
I

----------
target: c-Kit(V654A) (Homo sapiens, UniProt P10721, V654A); experiment: c-Kit(V654A) assay; format: biochemical; settings: Table 2, corresponding triazole derivatives
pIC50: −log10 of the molar value.
ASSAY_READOUT: pIC50

{"COMPOUND": "COCCOc1cc2[nH]nc(-c3cn(-c4ccc(C(=O)N5CC(F)C5)cc4)nn3)c2cc1F [reference compound]", "MEASUREMENT_TARGET": "c-Kit(V654A) (Homo sapiens, UniProt P10721, V654A)", "NUMERIC_READOUT": 7.96}

A: COCCOc1cc2[nH]nc(-c3cn(-c4ccc(C(=O)N5CCN(C)CC5)cc4)nn3)c2cc1F [reference compound]
B: COCCOc1cc2[nH]nc(-c3cn(-c4ccc(C(=O)N5CCOC[C@@H]5C)cc4)nn3)c2cc1F [reference compound]
Could you please tell me which of these two has the higher pIC50: A or B ? Reply with the label of the item you choose.
B
(B: 8.16, A: 7.82)
